- TESTED_TARGET: Peroxisome proliferator-activated receptor gamma/Nuclear receptor coactivator 3 (Homo sapiens, UniProt P37231)
- Sequence (P37231 whole entry): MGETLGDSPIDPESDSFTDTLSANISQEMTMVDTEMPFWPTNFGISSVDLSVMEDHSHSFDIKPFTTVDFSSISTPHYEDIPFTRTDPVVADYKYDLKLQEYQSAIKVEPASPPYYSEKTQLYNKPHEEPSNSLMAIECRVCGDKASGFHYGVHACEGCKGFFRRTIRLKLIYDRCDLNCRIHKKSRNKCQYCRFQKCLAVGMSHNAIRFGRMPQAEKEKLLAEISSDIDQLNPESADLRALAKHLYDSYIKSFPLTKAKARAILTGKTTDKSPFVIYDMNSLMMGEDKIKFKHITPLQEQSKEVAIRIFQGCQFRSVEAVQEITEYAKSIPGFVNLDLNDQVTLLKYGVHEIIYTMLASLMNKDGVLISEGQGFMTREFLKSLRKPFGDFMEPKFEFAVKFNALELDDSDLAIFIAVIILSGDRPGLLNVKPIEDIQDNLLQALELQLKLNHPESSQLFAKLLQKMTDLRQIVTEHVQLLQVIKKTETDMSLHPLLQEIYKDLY
- Sequence (Q9Y6Q9 whole entry, further chain): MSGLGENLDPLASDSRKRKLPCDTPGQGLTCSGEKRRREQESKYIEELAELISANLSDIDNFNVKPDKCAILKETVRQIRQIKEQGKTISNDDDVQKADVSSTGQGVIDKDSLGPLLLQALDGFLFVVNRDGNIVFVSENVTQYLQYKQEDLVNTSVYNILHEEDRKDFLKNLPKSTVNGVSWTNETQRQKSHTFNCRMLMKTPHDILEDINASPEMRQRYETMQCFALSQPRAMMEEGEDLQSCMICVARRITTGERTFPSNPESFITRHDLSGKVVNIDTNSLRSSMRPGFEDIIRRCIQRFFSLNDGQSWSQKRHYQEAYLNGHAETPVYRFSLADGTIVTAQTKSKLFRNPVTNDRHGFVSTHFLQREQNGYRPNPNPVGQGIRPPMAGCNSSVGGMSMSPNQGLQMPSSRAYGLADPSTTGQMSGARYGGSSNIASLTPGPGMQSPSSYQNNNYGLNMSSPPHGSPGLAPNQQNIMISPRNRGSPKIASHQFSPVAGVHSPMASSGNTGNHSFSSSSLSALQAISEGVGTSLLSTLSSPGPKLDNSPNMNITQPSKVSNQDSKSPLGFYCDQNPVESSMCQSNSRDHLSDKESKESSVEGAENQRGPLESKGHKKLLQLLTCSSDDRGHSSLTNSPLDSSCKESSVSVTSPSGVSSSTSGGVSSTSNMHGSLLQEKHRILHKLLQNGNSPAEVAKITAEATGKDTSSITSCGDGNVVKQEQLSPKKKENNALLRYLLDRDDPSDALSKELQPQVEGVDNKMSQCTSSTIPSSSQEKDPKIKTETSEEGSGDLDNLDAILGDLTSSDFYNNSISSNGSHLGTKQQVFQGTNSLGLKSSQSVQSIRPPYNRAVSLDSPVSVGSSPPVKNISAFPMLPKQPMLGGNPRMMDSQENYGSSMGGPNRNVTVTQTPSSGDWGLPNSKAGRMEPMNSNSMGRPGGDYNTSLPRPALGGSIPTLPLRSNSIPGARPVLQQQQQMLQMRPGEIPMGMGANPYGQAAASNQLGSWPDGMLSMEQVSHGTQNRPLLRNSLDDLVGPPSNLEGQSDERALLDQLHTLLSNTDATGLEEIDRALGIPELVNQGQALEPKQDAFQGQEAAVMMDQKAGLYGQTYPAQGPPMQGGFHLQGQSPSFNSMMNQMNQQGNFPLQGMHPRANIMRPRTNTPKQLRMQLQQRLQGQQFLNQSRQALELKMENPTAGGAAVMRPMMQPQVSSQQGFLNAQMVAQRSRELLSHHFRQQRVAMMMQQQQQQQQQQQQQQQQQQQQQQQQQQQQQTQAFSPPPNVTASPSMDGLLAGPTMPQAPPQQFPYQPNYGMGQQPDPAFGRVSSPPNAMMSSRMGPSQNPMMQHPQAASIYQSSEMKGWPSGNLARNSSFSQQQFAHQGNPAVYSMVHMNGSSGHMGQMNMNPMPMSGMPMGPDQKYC
- PROTOCOL_SUMMARY: TR-FRET dose response biochemical High Throughput Screening assay for agonists of the steroid receptor coactivator 3 (SRC-3) recruitment by the peroxisome proliferator-activated receptor gamma (PPAR gamma): non-selective agonists. [Related pubchem assays: 1301 (Confirmation screen.), 1048 (Primary screen.)]
- Format: functional
QUANTITY: EC50

Known EC50 results, listed for orientation:
O=C(Nc1nc(-c2ccc(S(=O)(=O)N3CCCCCC3)cc2)cs1)c1ccccc1: 40.9 µM (not active)
CC(=O)/N=c1\sc2nc3ccccc3nc2n1N(C(C)=O)C(C)=O: > 79.4 µM (not active)
CCCCOC(=O)C(C)Nc1n[nH]c(=S)[nH]c1=O (stereo not given): > 79.4 µM (not active)

input: Name the reported EC50 value associated with the compound COc1ccc2nc(SC)c(C#N)cc2c1
output: 41.8 µM (not active)

input: Name the reported EC50 value associated with the compound Cc1onc(-c2ccccc2Cl)c1C(=O)Nc1nnc(-c2ccc(Br)cc2)s1
output: > 79.4 µM (not active)

---

- TESTED_TARGET: Genome polyprotein (dengue virus type 2, UniProt P29990)
- PROTOCOL_SUMMARY: flavivirus cap methylation enzyme inhibition – biochemical, confirmation dose response, primary screen (AID 588689)
- Format: functional
Activity calls are given as the source filed them.
QUANTITY: IC50

O=C(O)c1ccc(COc2ccccc2C=C2C(=O)c3ccccc3C2=O)cc1: 6.33 µM (active)
Cc1ccc(/C=C2/C(=O)c3ccc(C(=O)O)cc3C2=O)o1: 40.1 µM (active)
COc1cc(C(=S)N2CCN(c3ccccc3Cl)CC2)cc(O)c1O: > 100 µM (active)
CC(=O)n1cc(C=C2C(=O)NC(=O)NC2=O)c2ccccc21: 42.8 µM (active)
Cn1nc([N+](=O)[O-])c(C(C#N)c2ccccn2)c(Cl)c1=O (stereo not drawn): 26.5 µM (active)

input: Name the reported IC50 value associated with the molecule Cc1ccc(S(=O)(=O)/N=C2/C=C(C3C(=O)CC(C)(C)CC3=O)C(=O)c3ccccc32)cc1
output: 10.1 µM (active)

input: Name the reported IC50 value associated with the molecule COc1cccc(/C=C2/C(=O)NN(c3ccccc3)C2=O)c1
output: 45.8 µM (active)

input: Name the reported IC50 value associated with the molecule CC1(C)CC(=O)C=C(NC2=CC3OC(c4ccccc4)OCC3OC2=O)C1 (stereo not drawn)
output: > 100 µM (active)

---

// IC50 lookup, one value per entry
- TESTED_TARGET: Fatty acid synthase (Homo sapiens, UniProt P49327)
- Sequence (P49327 whole entry): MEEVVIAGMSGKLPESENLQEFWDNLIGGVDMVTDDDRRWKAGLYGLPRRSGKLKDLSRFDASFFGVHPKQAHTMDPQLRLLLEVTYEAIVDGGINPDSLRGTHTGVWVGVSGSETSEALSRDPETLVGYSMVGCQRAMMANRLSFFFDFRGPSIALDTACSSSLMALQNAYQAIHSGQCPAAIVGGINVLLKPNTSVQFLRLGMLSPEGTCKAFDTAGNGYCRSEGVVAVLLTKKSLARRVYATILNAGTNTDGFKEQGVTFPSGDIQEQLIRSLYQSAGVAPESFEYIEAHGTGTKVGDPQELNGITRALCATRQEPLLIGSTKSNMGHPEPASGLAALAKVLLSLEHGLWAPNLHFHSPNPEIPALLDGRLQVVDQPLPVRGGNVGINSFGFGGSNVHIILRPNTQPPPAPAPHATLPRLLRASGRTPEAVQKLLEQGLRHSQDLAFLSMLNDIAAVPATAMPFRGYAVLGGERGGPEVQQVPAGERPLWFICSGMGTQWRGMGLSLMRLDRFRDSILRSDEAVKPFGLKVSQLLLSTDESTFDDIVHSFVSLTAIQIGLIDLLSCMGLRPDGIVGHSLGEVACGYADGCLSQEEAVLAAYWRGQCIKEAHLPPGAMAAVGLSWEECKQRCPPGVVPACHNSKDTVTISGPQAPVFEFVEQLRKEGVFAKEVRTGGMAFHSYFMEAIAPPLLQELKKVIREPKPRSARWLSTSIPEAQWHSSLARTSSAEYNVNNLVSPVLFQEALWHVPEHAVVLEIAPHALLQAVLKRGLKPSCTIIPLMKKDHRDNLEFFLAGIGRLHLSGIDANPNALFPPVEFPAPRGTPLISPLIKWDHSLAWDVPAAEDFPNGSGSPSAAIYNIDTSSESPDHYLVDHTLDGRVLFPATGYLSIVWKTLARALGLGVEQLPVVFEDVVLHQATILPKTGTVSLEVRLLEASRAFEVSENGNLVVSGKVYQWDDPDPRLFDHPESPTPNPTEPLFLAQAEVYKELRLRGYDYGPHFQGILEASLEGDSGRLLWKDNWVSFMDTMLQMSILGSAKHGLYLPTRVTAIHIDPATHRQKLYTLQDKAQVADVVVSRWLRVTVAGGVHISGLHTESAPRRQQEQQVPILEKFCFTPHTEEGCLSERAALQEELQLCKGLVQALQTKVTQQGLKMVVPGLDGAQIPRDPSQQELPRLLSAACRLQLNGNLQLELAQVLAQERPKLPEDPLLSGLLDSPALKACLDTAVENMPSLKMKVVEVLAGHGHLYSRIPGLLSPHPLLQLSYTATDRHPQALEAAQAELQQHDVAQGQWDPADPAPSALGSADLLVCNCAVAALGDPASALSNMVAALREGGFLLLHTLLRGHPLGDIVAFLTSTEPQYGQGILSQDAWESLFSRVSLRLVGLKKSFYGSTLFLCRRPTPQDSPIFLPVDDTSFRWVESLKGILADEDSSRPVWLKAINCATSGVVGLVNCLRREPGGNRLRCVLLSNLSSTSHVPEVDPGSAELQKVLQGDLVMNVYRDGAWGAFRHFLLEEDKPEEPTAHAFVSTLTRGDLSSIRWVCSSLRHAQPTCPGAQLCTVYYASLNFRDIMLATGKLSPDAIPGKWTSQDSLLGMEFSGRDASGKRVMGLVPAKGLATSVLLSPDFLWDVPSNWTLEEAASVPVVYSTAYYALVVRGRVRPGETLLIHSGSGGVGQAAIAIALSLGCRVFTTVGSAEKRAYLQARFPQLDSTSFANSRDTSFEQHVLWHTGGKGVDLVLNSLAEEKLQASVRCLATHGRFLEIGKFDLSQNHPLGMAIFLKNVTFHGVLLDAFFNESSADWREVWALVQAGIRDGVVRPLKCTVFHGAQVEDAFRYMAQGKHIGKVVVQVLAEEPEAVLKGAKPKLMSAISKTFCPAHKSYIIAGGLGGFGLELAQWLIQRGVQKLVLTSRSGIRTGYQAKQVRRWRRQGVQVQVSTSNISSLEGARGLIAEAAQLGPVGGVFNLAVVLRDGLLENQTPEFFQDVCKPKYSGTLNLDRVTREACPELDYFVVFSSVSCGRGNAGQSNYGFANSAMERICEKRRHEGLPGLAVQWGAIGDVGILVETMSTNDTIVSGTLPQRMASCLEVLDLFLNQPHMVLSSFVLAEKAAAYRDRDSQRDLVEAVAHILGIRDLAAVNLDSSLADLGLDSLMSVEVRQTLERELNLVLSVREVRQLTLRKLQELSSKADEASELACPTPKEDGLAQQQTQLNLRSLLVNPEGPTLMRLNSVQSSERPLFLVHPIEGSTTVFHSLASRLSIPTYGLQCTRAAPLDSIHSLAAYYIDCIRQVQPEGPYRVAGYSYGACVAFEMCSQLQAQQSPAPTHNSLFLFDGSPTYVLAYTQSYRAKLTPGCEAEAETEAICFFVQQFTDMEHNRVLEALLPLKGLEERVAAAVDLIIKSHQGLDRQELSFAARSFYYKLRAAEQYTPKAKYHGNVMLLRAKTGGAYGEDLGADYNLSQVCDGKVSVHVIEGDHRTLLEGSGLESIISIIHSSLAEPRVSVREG
- PROTOCOL_SUMMARY: inhibition of human FAS-TE enzyme activity – biochemical, endpoint fluorescence intensity, uHTS hits, dose response (AID 624327);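 further: fluorescence from hydrolysis of an O-methyl fluorescein acyl ester substrate by the enzyme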
- Type: functional
The source made the active and inactive calls.

O=C(NNS(=O)(=O)c1ccc([N+](=O)[O-])cc1)c1ccc2ccccc2c1O: 7.74 µM (active)
N#C/C(=C\c1cccc([N+](=O)[O-])c1)C(=O)NCc1ccc(Cl)cc1: 4.48 µM (active)
COc1ccc(-c2csc(NC(=O)c3ccccc3NS(=O)(=O)c3ccc(C)cc3)n2)cc1: 10.2 µM (active)
O=[N+]([O-])c1cccc(-c2ccc(SCc3cccnc3)nn2)c1: 8.53 µM (active)
NC(=NOC(=O)CCC1CCCC1)c1cccc([N+](=O)[O-])c1: 7.47 µM (active)

input: Name the reported IC50 value associated with the compound C=C(C)CSc1ncc(-c2cccc(C(F)(F)F)c2)cn1
output: 13.3 µM (active)

input: Name the reported IC50 value associated with the compound Cc1cc(C)c(C)c(S(=O)(=O)ON2C(=O)c3ccccc3C2=O)c1C
output: 0.61 µM (active)

input: Name the reported IC50 value associated with the compound CC(C)(C)NC(=O)/C(=C\C=C\c1ccccc1)NC(=O)c1ccc([N+](=O)[O-])cc1
output: 0.491 µM (active)

input: Name the reported IC50 value associated with the compound COCCn1/c(=N/C(=O)c2ccc(S(=O)(=O)N3CCCc4ccccc43)cc2)sc2cc(S(C)(=O)=O)ccc21
output: 45.9 µM (inactive)

input: Name the reported IC50 value associated with the compound O=C(COc1ncnc2ccccc12)Nc1ccc(Cl)c([N+](=O)[O-])c1
output: 8.42 µM (active)

Every entry's value here was drawn from ChEMBL document CHEMBL1201862.
